mortality by entry:
- assay-summary: Toxicity in Plasmodium vinckei petteri infected CD mice (Mus musculus) assessed as mortality at 5 mg/kg/day, […] measured on day 5
- Assay type: organism-based
- assay-setup: in vivo, iv, read-out: INH

sample-smiles: C[C@@]12CCC[C@]3(C)c4cc5c(cc4C(=O)[C@](O)(OC1)[C@H]23)C(=O)C=CC5=O
unit-string: %
mortality: 0
//
sample-smiles: C[C@@]12CCC[C@]3(C)c4cc5c(cc4C(=O)[C@](O)(OC1)[C@H]23)C(=O)C1=C(NCCS1(=O)=O)C5=O
unit-string: %
mortality: 0

----------
// Ratio IC50 lookup, one value per entry
- assay-summary: Selectivity index ratio of IC50 for human MCF7 cells to IC50 for chloroquine-sensitive Plasmodium falciparum F32
- Assay type: functional

sample-smiles: C[C@@]12CCC[C@]3(C)c4cc5c(cc4C(=O)[C@](O)(OC1)[C@H]23)C(=O)C1=C(NCCS1(=O)=O)C5=O
qualifier-operator: =
Ratio IC50: 270
--
sample-smiles: C[C@@]12CCC[C@]3(C)c4cc5c(cc4C(=O)[C@](O)(OC1)[C@H]23)C(=O)C=CC5=O
qualifier-operator: =
Ratio IC50: 4
--
sample-smiles: C[C@@]12CCC[C@]3(C)c4cc5c(O)ccc(O)c5cc4C(=O)[C@](O)(OC1)[C@H]23
qualifier-operator: <
Ratio IC50: 1
--
sample-smiles: COC1=CC(=O)c2cc3c(cc2C1=O)C(=O)[C@]1(O)OC[C@@]2(C)CCC[C@@]3(C)[C@@H]21
qualifier-operator: <
Ratio IC50: 1

----------
- assay-summary: Toxicity in Plasmodium vinckei petteri infected CD mice (Mus musculus) assessed as mortality at 5 mg/kg/day, intraperitoneally measured on day 1
- Assay type: organism-based
- Set-up: route intraperitoneal
- assay-setup: in vivo, ip, read-out: INH
Examples of compounds with documented mortality follow.

sample-smiles: C[C@@]12CCC[C@]3(C)c4cc5c(cc4C(=O)[C@](O)(OC1)[C@H]23)C(=O)C=CC5=O
mortality / %: 0
//
sample-smiles: C[C@@]12CCC[C@]3(C)c4cc5c(cc4C(=O)[C@](O)(OC1)[C@H]23)C(=O)C1=C(NCCS1(=O)=O)C5=O
mortality / %: 0

----------
- Test system: MCF7
- assay-summary: Cytotoxicity against human MCF7 cells assessed as [3H]hypoxanthine incorporation
- Format: cell-based
// returns 0.0 unless IC50 is strictly below 10 µM, in which case 1.0

compound: C[C@@]12CCC[C@]3(C)c4cc5c(cc4C(=O)[C@](O)(OC1)[C@H]23)C(=O)C1=C(NCCS1(=O)=O)C5=O [ALISIAQUINONE C]
classification: 0.0
//
compound: CCN(CC)CCCC(C)Nc1ccnc2cc(Cl)ccc12 (stereo not given) [CHLOROQUINE]
classification: 0.0
//
compound: C[C@@]12CCC[C@]3(C)c4cc5c(cc4C(=O)[C@](O)(OC1)[C@H]23)C(=O)C=CC5=O [ALISIAQUINONE A]
classification: 0.0
//
compound: C[C@@]12CCC[C@]3(C)c4cc5c(O)ccc(O)c5cc4C(=O)[C@](O)(OC1)[C@H]23 [ALISIAQUINOL]
classification: 1.0
//
compound: COC1=CC(=O)c2cc3c(cc2C1=O)C(=O)[C@]1(O)OC[C@@]2(C)CCC[C@@]3(C)[C@@H]21 [ALISIAQUINONE B]
classification: 1.0
